- TARGET OR TEST SYSTEM: Recombinant human JAK2 kinase domain protein (Residues 812-1132) (Homo sapiens, UniProt O60674)
- Sequence (O60674 812-1132): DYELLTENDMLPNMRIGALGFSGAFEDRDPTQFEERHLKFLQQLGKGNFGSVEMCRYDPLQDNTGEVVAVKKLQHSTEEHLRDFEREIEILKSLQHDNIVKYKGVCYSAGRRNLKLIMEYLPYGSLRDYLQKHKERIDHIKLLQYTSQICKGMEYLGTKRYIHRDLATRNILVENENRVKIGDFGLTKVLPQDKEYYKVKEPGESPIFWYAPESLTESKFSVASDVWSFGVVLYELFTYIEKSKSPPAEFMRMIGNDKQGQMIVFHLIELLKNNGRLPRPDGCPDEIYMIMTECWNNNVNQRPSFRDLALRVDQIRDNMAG
- PROCEDURE DETAILS: JAK2 biochemical assay (LabChip mobility shift, Ki)
- CONDITION NOTES: Biochem JAK2 Ki
Please respond with reported Ki for every item in the list.
Expressed in nM, but write only the number.

Fill in: Ki of `NCc1ccc(Oc2ccc(OC(F)F)c(-c3n[nH]cc3NC(=O)c3cnn4cccnc34)c2)cc1` is ___
0.89

Fill in: Ki of `Cn1cc(NC(=O)c2cnn3cccnc23)c(-c2cc(Oc3cnn(CC4CNC4)c3)ccc2OC(F)F)n1` is ___
0.74

Fill in: Ki of CN1CC(O)C(n2cc(Oc3ccc(OC(F)F)c(-c4nn(C)cc4NC(=O)c4cnn5cccnc45)c3)cn2)C1 (centres unmarked) [Example 178] is ___
0.21

Fill in: Ki of CN1CCC(n2cc(Oc3ccc(OC(F)F)c(-c4nn(C)cc4NC(=O)c4cnn5cccnc45)c3)cn2)C(O)C1 (centres unmarked) [Example 187] is ___
0.24

Fill in: Ki of Cn1cc(NC(=O)c2cnn3cccnc23)c(-c2cc(Oc3cnn(CC4(O)CN5CCC4CC5)c3)ccc2OC(F)F)n1 (centres unmarked) [Example 199] is ___
0.43

Fill in: Ki of `CN1CCC(n2cc(Oc3ccc(OC(F)F)c(-c4nn(C)cc4NC(=O)c4cnn5cccnc45)c3)cn2)CC1` is ___
2.3

Fill in: Ki of `CN(C)CCN(C)C(=O)c1cccc(Oc2ccc(OC(F)F)c(-c3nn(C)cc3NC(=O)c3cnn4cccnc34)c2)c1` is ___
0.88

Fill in: Ki of `CN1CC(O)(c2cccc(Oc3ccc(OC(F)F)c(-c4nn(CCO)cc4NC(=O)c4cnn5cccnc45)c3)c2)C1` is ___
0.6

Fill in: Ki of `CN(CC(=O)N(C)C)Cc1cccc(Oc2ccc(OC(F)F)c(-c3nn(C)cc3NC(=O)c3cnn4cccnc34)c2)c1` is ___
0.75

Fill in: Ki of `Cc1c(Oc2ccc(OC(F)F)c(-c3nn(C)cc3NC(=O)c3cnn4cccnc34)c2)cnn1CCO` is ___
0.21

Fill in: Ki of CN1CCCC1Cn1cc(NC(=O)c2cnn3cccnc23)c(-c2cc(Oc3cccc(C4CNCCO4)c3)ccc2OC(F)F)n1 (racemic) is ___
4.4

Fill in: Ki of `O=C(Nc1c[nH]nc1-c1cc(Oc2ccc(OCC(F)(F)F)cc2)ccc1OC(F)F)c1cnn2cccnc12` is ___
0.91

Fill in: Ki of `Cc1ccc(Oc2ccc(OC(F)F)c(-c3nn(C)cc3NC(=O)c3cnn4cccnc34)c2)cc1C(=O)N1CCN(C)CC1` is ___
0.46

Fill in: Ki of `CN(C)C(=O)c1ccc(Oc2ccc(OC(F)F)c(-c3n[nH]cc3NC(=O)c3cnn4cccnc34)c2)cc1` is ___
0.23

###

Please respond with reported Ki for every item in the list.
- TARGET OR TEST SYSTEM: recombinant human JAK1 kinase domain protein (Residues 854-1154) (Homo sapiens, UniProt P23458)
- Construct: human JAK1 kinase domain protein (Residues 854-1154)
- Sequence (P23458 854-1154): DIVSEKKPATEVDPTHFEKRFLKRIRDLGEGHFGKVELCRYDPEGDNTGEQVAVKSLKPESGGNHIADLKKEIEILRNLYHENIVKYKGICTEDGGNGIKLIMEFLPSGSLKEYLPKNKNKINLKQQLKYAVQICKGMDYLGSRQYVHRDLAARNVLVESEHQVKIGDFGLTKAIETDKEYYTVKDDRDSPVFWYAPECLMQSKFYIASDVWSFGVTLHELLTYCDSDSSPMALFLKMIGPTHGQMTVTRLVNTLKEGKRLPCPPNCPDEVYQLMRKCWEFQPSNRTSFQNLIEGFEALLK
- PROCEDURE DETAILS: JAK1 biochemical assay (LabChip mobility shift, Ki)
- CONDITION NOTES: read-out: Biochem JAK1 Ki

Fill in: Ki of `O=C(Nc1c[nH]nc1-c1cc(Oc2ccc3c(c2)CNCC3)ccc1OC(F)F)c1cnn2cccnc12` is ___
0.17 nM

Fill in: Ki of `Cn1cc(NC(=O)c2cnn3cccnc23)c(-c2cc(Oc3cc(Cl)cc(C4(O)CNC4)c3)ccc2OC(F)F)n1` is ___
0.19 nM

Fill in: Ki of `CN1CC(N(C)C(=O)c2cccc(Oc3ccc(OC(F)F)c(-c4nn(C)cc4NC(=O)c4cnn5cccnc45)c3)c2)C1` is ___
0.74 nM

Fill in: Ki of `NCc1cc(Oc2ccc(OC(F)F)c(-c3n[nH]cc3NC(=O)c3cnn4cccnc34)c2)ccc1F` is ___
0.39 nM

Fill in: Ki of CN1CC[C@@H](O)[C@H](n2cc(Oc3ccc(OC(F)F)c(-c4nn(C)cc4NC(=O)c4cnn5cccnc45)c3)cn2)C1 (stereo in doubt) is ___
0.33 nM

Fill in: Ki of `CCCN(CCCO)Cc1ccc(Oc2ccc(OC(F)F)c(-c3nn(C)cc3NC(=O)c3cnn4cccnc34)c2)cc1` is ___
6 nM

Fill in: Ki of `Cc1c(Oc2ccc(OC(F)F)c(-c3nn(C)cc3NC(=O)c3cnn4cccnc34)c2)cnn1C` is ___
0.31 nM

Fill in: Ki of `O=C(Nc1c[nH]nc1-c1cc(Oc2ccccc2)ccc1OC(F)F)c1cnn2cccnc12` is ___
0.18 nM

Fill in: Ki of Cn1cc(NC(=O)c2cnn3cccnc23)c(-c2cc(Oc3cnn(C4CCNCC4O)c3)ccc2OC(F)F)n1 (centres unmarked) [Example 183] is ___
0.41 nM

Fill in: Ki of `Cn1cc(NC(=O)c2cnn3cccnc23)c(-c2cc(Oc3cccc(C4(F)CNC4)c3)ccc2OC(F)F)n1` is ___
0.27 nM

Fill in: Ki of `Cn1cc(NC(=O)c2cnn3cccnc23)c(-c2cc(Oc3cnn(CC4(O)CNC4)c3)ccc2OC(F)F)n1` is ___
0.52 nM

Fill in: Ki of `CN(C)C(=O)c1ccc(Oc2ccc(OC(F)F)c(-c3nn(C4COC4)cc3NC(=O)c3cnn4cccnc34)c2)cc1` is ___
0.64 nM

Fill in: Ki of CN1CCOC(c2cccc(Oc3ccc(OC(F)F)c(-c4nn(C)cc4NC(=O)c4cnn5cccnc45)c3)c2)C1 (centres unmarked) is ___
0.93 nM

Fill in: Ki of `Cn1cc(NC(=O)c2cnn3cccnc23)c(-c2cc(Oc3cccc(CN(CCO)CCO)c3)ccc2OC(F)F)n1` is ___
0.58 nM

###

- TARGET OR TEST SYSTEM: recombinant human JAK1 kinase domain protein (Residues 854-1154) (Homo sapiens, UniProt P23458)
- Construct: human JAK1 kinase domain protein (Residues 854-1154)
- PROCEDURE DETAILS: JAK1 biochemical assay (LabChip mobility shift, Ki)
- CONDITION NOTES: read-out: Biochem JAK1 Ki
Please respond with reported pKi for every item in the list.
Field pKi (float): negative decimal logarithm of the concentration in molar.

Fill in: pKi of CN1CCC[C@H]1Cn1cc(NC(=O)c2cnn3cccnc23)c(-c2cc(Oc3ccccc3)ccc2OC(F)F)n1 (racemic) is ___
9.43

Fill in: pKi of `CN1CC(O)(c2cccc(Oc3ccc(OC(F)F)c(-c4nn(CCO)cc4NC(=O)c4cnn5cccnc45)c3)c2)C1` is ___
9.07

Fill in: pKi of Cn1cc(NC(=O)c2cnn3cccnc23)c(-c2cc(Oc3cccc(CN4CCO[C@H](CO)C4)c3)ccc2OC(F)F)n1 (stereo in doubt) is ___
8.77

###

- TARGET OR TEST SYSTEM: recombinant human JAK1 kinase domain protein (Residues 854-1154) (Homo sapiens, UniProt P23458)
- Construct: human JAK1 kinase domain protein (Residues 854-1154)
- PROCEDURE DETAILS: JAK1 biochemical assay (LabChip mobility shift, Ki)
- CONDITION NOTES: read-out: Biochem JAK1 Ki
Please respond with reported pKi for every item in the list.
Field pKi (float): negative decimal logarithm of the concentration in molar.

Fill in: pKi of `O=C(Nc1c[nH]nc1-c1cc(Oc2cccc(OCC(F)(F)F)c2)ccc1OC(F)F)c1cnn2cccnc12` is ___
8.96

Fill in: pKi of `CN(CC(=O)N(C)C)Cc1cccc(Oc2ccc(OC(F)F)c(-c3nn(C)cc3NC(=O)c3cnn4cccnc34)c2)c1` is ___
9.09

Fill in: pKi of `CN1CCc2cc(Oc3ccc(OC(F)F)c(-c4nn(C)cc4NC(=O)c4cnn5cccnc45)c3)ccc2C1` is ___
8.77

Fill in: pKi of `CNCCn1cc(NC(=O)c2cnn3cccnc23)c(-c2cc(Oc3ccccc3)ccc2OC(F)F)n1` is ___
9.60

Fill in: pKi of `Cn1cc(NC(=O)c2cnn3cccnc23)c(-c2cc(Oc3cnn(CC(C)(C)O)c3)ccc2OC(F)F)n1` is ___
9.41

Fill in: pKi of `Cn1cc(NC(=O)c2cnn3cccnc23)c(-c2cc(Oc3cnn(CC4CNC4)c3)ccc2OC(F)F)n1` is ___
9.21

Fill in: pKi of CN(C)C1CCCN(C(=O)c2cccc(Oc3ccc(OC(F)F)c(-c4nn(C)cc4NC(=O)c4cnn5cccnc45)c3)c2)C1 (racemic) is ___
8.92

###

- TARGET OR TEST SYSTEM: Recombinant human JAK2 kinase domain protein (Residues 812-1132) (Homo sapiens)
- PROCEDURE DETAILS: JAK2 biochemical assay (LabChip mobility shift, Ki)
- CONDITION NOTES: Biochem JAK2 Ki
Please respond with reported pKi for every item in the list.
Field pKi (float): negative decimal logarithm of the concentration in molar.

Fill in: pKi of CCn1cc(NC(=O)c2cnn3cccnc23)c(-c2cc(Oc3cccc(C4(O)CN(C)C4)c3)ccc2OC(F)F)n1 [Example 108] is ___
9.14

Fill in: pKi of Cn1cc(NC(=O)c2cnn3cccnc23)c(-c2cc(Oc3cnn([C@H]4C[C@H](N)C4)c3)ccc2OC(F)F)n1 [Example 188] is ___
9.11

Fill in: pKi of CN(C)C1CCN(C(=O)c2cccc(Oc3ccc(OC(F)F)c(-c4nn(C)cc4NC(=O)c4cnn5cccnc45)c3)c2)C1 (racemic) [Example 211] is ___
9.24

Data provenance: patent US12528812B2
